FYI, the data here is from ChEMBL document CHEMBL5316346.

Test System: UniProtKB P32245
Sequence (P32245 whole entry): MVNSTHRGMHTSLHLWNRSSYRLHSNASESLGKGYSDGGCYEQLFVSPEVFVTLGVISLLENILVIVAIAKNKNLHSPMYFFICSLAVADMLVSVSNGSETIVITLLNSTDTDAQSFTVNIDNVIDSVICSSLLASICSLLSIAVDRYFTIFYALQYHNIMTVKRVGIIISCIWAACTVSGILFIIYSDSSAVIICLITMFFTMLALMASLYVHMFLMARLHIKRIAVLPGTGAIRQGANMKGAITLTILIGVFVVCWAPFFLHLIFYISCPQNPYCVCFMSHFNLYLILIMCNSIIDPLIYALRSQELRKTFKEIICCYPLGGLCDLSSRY
Test Method Notes: Displacement of sCy5-MT-I from human MC4R stably expressed in human HEK293 cells incubated for 2 hrs by Cheng-Prusoff equation based FACS analysis
Format: cell-based
Condition Notes: read-out: pKi (converted)
Measured Property: Ki (nM)

Item Smiles	Measured Property	Measured Number
C[C@@H]1NC(=O)[C@H](Cc2c[nH]c3ccccc23)NC(=O)[C@H](CCCNC(=N)N)NC(=O)[C@@H](Cc2ccccc2)NC(=O)[C@H](Cc2c[nH]cn2)NC(=O)c2cc([N+](=O)[O-])ccc2SC[C@@H](C(N)=O)NC1=O	Ki	1.26

A. C#Cc1ccc2c(c1)C(=O)N[C@@H](Cc1c[nH]cn1)C(=O)N[C@H](Cc1ccccc1)C(=O)N[C@@H](CCCNC(=N)N)C(=O)N[C@@H](Cc1c[nH]c3ccccc13)C(=O)N[C@H](C(N)=O)CS2
B. C[C@@H]1NC(=O)c2cc([N+](=O)[O-])ccc2SC[C@@H](C(N)=O)NC(=O)[C@H](Cc2c[nH]c3ccccc23)NC(=O)[C@H](CCCNC(=N)N)NC(=O)[C@@H](Cc2ccccc2)NC(=O)[C@H](Cc2c[nH]cn2)NC1=O
Query: Could you please tell me which of these two has the higher Ki: A or B ? Answer format: the label of the selected item.
Response: B
(B: 3.02 nM, A: 0.234 nM)
